The reported numbers originate from patent US8822452B2.

tested_on: 11-beta-HSD2 (Homo sapiens)
Construct: expressed in transfected cells; host or cells: HEK-293 cells, stably transfected; microsome preparation
Sequence (P80365 whole entry): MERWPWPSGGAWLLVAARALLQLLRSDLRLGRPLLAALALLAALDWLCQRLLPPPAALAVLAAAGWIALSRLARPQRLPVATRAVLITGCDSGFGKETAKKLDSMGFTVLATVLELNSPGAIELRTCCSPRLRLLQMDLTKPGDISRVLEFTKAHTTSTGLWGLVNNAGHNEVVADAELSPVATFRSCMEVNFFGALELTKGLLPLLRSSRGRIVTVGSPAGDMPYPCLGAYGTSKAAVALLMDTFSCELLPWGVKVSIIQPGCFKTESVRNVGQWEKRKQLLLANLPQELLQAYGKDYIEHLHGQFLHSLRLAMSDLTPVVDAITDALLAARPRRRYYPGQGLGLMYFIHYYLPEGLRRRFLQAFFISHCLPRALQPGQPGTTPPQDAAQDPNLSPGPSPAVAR
assay_comment: Inhibitory activity of 11-beta-HSD2 in the microsomal fraction of transfected HEK293 cells (SPA, [3H]-cortisol)
Assay type: biochemical
applied_conditions: microsomes of HEK-293 cells transfected with 11-beta-HSD2
measured_attribute: inhibition at 10 µM (%)

Solved cases (6 shown):
                                   compound  u  observed_measurement
0  O=C(CCCC(=O)N1CCCC2CCCCC21)NCCc1ccccc1 (stereo not shown)  %                     0
1  O=C(NCCC(=O)N1CCCC2CCCCC21)c1ccc2ccccc2n1 (stereo not shown)  %                     0
2  O=C(CCCNC(=O)N1CCCC2CCCCC21)N1CCC2CCCCC2C1 (stereo not shown)  %                    10
3  O=C(CCCC(=O)N1CCCC2CCCCC21)NCc1ccccc1 (stereo not shown)  %                     0
4  O=C1c2ccccc2C(=O)N1CCCCC(=O)N1CCCC2CCCCC21 (stereo not shown)  %                     0
5  O=C1c2ccc(F)cc2C(=O)N1CCCCC(=O)N1CCCC2CCCCC21 (stereo not shown)  %                     6

[1] O=C(CCCCN1C(=O)c2ccccc2C1=O)N1CCC2CCCCC2C1 (stereo not shown)
[2] CN(Cc1cccc2ccccc12)C(=O)CCCC(=O)N1CCCC2CCCCC21 (stereo not shown)
[3] O=C(NCCC(=O)N1CCCC2CCCCC21)c1cc2ccccc2cn1 (stereo not shown)
[4] CN(Cc1cccc2ccccc12)C(=O)CCCNC(=O)N1CCC2CCCCC2C1 (stereo not shown)
Exercise: Put the items in sequence by inhibition at 10 µM, from largest down. Write the labels in rank order as requested.
Key: 4, 2, 1, 3
(4: 13%, 2: 6%, 1: 4%, 3: 0%)

###

assay_comment: Acute glaucoma model: glucose-induced ocular hypertension in rabbit (IOP)
Assay type: in vivo, Chinchilla Bastard rabbits
applied_conditions: 0.5% suspension versus Timolol maleate solution 0.5%
measured_attribute: Glucose-induced Hypertension Ratio Inhibitor/Timolol
# print the numeric value only

In [3]: df
Out[3]:
                                   compound  observed_measurement
0  O=C(CCCCC(=O)N1CCCC2CCCCC21)NC1C2CC3CC(C2)CC1C3 (centres unmarked) [Ia.96]                  0.84
1  O=C1c2ccccc2C(=O)N1CCCCC(=O)N1CCCC2CCCCC21 (centres unmarked) [If.1]                  0.90
2  O=C(CCCC(=O)N1CCCC2CCCCC21)NC1CCCc2ccccc21 (centres unmarked) [Ia.224]                  0.25

Exercise: Given the entry O=C(NCCC(=O)N1CCCC2CCCCC21)c1ccc2ccccc2n1 (centres unmarked) [Id.12] , report its measured Glucose-induced Hypertension Ratio Inhibitor/Timolol.
Key: 0.87

Exercise: Given the entry O=C(CCCC(=O)N1CCCC2CCCCC21)NCCc1cccc(F)c1 (centres unmarked) [Ia.198] , report its measured Glucose-induced Hypertension Ratio Inhibitor/Timolol.
Key: 0.65
